Each entry below carries its reported minimum inhibitory concentration (MIC).
Test system: Bacillus subtilis PCI 219
method notes: MIC, two-fold agar dilution method
Assay type: cell-based
settings: nutrient agar
measured property: minimum inhibitory concentration (MIC)

• Cc1c(N)nc([C@H](CC(N)=O)NC[C@@H](N)C(N)=O)nc1C(=O)N[C@H](C(=O)N[C@H](C)[C@@H](O)CC(=O)N[C@@H](C(=O)NC(O[C@@H]1O[C@@H](C)[C@@H](N)[C@@H](O)[C@H]1O)C(O)c1nc(-c2nc(C(=O)NCCCNCCCCN)cs2)cs1)[C@@H](C)O)C(O[C@@H]1O[C@@H](CO)[C@H](O)[C@@H](O)[C@@H]1O[C@H]1O[C@H](CO)[C@@H](O)[C@@H](OC(N)=O)[C@@H]1O)c1cnc[nH]1 (stereo partly drawn) [Tallysomycin B, reference compound] = 0.006
• Cc1c(N)nc(C(CC(N)=O)NCC(N)C(N)=O)nc1C(=O)NC(C(=O)NC(C)C(O)CC(=O)NC(C(=O)NC(OC1OC(C)C(N)C(O)C1O)C(O)c1nc(-c2nc(C(=O)NCCCN(CCO)CCO)cs2)cs1)C(C)O)C(OC1OC(CO)C(O)C(O)C1OC1OC(CO)C(O)C(OC(N)=O)C1O)c1c[nH]cn1 (stereo not drawn) [Tallysomycin S8b] = 0.013
